// provenance: PubChem BioAssay AID463173

system: DeltatarO mutant; assay: S. aureus survival, RN4220 and DeltatarO strains – OD600, teichoic acid synthesis inhibitors, primary screen (AID 463173); settings: S. aureus RN4220 wild type/DeltatarO growth, OD600, 18 h, stronger effect = lower value, screened at 18.75 µg/mL (by protocol)
Among all 52,000 compounds or so, about 4,300 (8.3%) were called active. This excerpt belongs to a sample that is enriched for actives.
readout.type: survival (%)
Numbers only; they are read as %.

Query: Look up survival for this compound: CC1CCN(c2nc(-c3ccc(C(C)(C)C)cc3)nc3ccccc23)CC1
Reply: 6

Query: Look up survival for this compound: O=C(Nc1ccc(Br)cc1)c1cccc(C(=O)Nc2ccc(Br)cc2)c1
Reply: 72

Query: Look up survival for this compound: O=C1c2ccccc2C(=O)C1(O)N1CCOCC1
Reply: 85

Query: Look up survival for this compound: O=S(=O)(NCc1ccccc1Cl)c1ccc(-c2cnc(C3CC3)o2)cc1
Reply: 101

Query: Look up survival for this compound: CCc1ccc(NC(=O)CCn2c(=O)c3cccn3c3ccccc32)cc1
Reply: 48

Query: Look up survival for this compound: Cc1ccc(CNC(=O)Cn2c3ncccc3c(=O)n2-c2ccc(C)cc2)cc1
Reply: 116

Query: Look up survival for this compound: CC1CCN(c2nc3ccccc3nc2C(F)(F)F)CC1
Reply: 75

Query: Look up survival for this compound: CCc1ccc(NC(=O)CN2C(=O)CC(c3ccccc3)Sc3ccccc32)cc1 (stereo not drawn)
Reply: 113

Query: Look up survival for this compound: COc1ccc(C2CC(=O)N(Cc3ccc(F)cc3)c3ccccc3S2)cc1OC (stereo not drawn)
Reply: 100

Query: Look up survival for this compound: CC1(C(=O)NC2CCCCC2)Cc2ccccc2C(=O)N1Cc1ccccc1Cl (stereo not drawn)
Reply: 43

Query: Look up survival for this compound: O=C1CC(c2ccccc2)Sc2ccccc2N1Cc1ccc(F)cc1 (stereo not drawn)
Reply: -2

Query: Look up survival for this compound: Cc1ccc(C)c(N2CCN(S(=O)(=O)c3ccc4c(c3)OCCO4)CC2)c1
Reply: 76

Query: Look up survival for this compound: O=C(NC1CCCC1)c1ccc(CSc2nc3cccnc3n2Cc2ccccc2)cc1
Reply: 95

Query: Look up survival for this compound: COc1ccc(S(=O)(=O)N2CCN(c3cccc(C)c3C)CC2)c2ccccc12
Reply: 152

Query: Look up survival for this compound: CC1CCCCN1C(=O)CSc1nc(C2CC2)nc2ccccc12 (stereo not drawn)
Reply: 82

Query: Look up survival for this compound: COc1cccc(/C=N/NC(=O)CSCc2ccccc2)c1O
Reply: 69

Query: Look up survival for this compound: COc1cccc(/C=N/NC(=O)c2cccc(C)c2)c1O
Reply: 2

Query: Look up survival for this compound: Cc1cccc(-c2nc(S(=O)(=O)c3ccc(F)cc3)c(N3CCN(c4ccccc4)CC3)o2)c1
Reply: 110

Query: Look up survival for this compound: COc1ccc(N(C(=O)c2snc(C(N)=O)c2N)C(C(=O)NCc2ccc(F)cc2)c2ccc(C)o2)c(OC)c1 (stereo not drawn)
Reply: 67

Query: Look up survival for this compound: O=C(NC(=O)c1ccc(F)cc1)Nc1ccc(-c2cc(C(F)(F)F)nn2-c2ccccc2)cc1
Reply: 61

Query: Look up survival for this compound: CC1(N2CCOCC2)CC(=O)N(c2ccccc2)O1 (stereo not drawn)
Reply: 62

Query: Look up survival for this compound: Cc1ccc(C)c(CN2C(=O)c3ccccc3Sc3ccc(C(=O)NCc4ccc5c(c4)OCO5)cc32)c1
Reply: 89

Query: Look up survival for this compound: COC(=O)CSc1nc(-c2ccc(F)cc2)cc(C(F)(F)F)n1
Reply: 126

Query: Look up survival for this compound: Cc1cccc(-c2nc(S(=O)(=O)c3ccc(Cl)cc3)c(N3CCCCCC3)o2)c1
Reply: 46

Query: Look up survival for this compound: COc1ccc(C2CC(=O)N(CC(=O)Nc3cc(C)ccc3C)c3ccccc3S2)cc1 (stereo not drawn)
Reply: 79

Query: Look up survival for this compound: O=C(O)c1cccc2cc[nH]c12
Reply: 101

Query: Look up survival for this compound: Cc1cccc2c(=O)cc(CSc3ccccc3NC(=O)c3cccc(Br)c3)[nH]c12
Reply: 86

Query: Look up survival for this compound: CCOC(=O)N1CCN(C(=O)c2cnn3c(C(F)(F)F)cc(-c4cccc(OC)c4)nc23)CC1
Reply: 68

Query: Look up survival for this compound: CC1CCCCN1c1nc(-c2ccc(C(C)(C)C)cc2)nc2ccccc12 (stereo not drawn)
Reply: 3

Query: Look up survival for this compound: COc1cccc(-c2nc(S(=O)(=O)c3ccccc3)c(N3CCCCC3)o2)c1
Reply: 61

Query: Look up survival for this compound: CC1(C(=O)NC2CCCCC2)Cc2ccccc2C(=O)N1Cc1ccc(Cl)cc1 (stereo not drawn)
Reply: 92

Query: Look up survival for this compound: COc1cccc(/C=N/NC(=O)COc2c(C)cccc2C)c1O
Reply: 88

Query: Look up survival for this compound: CC(=O)Nc1ccc(-c2nnc(SCC(=O)c3ccc([N+](=O)[O-])cc3)o2)cc1
Reply: 66

Query: Look up survival for this compound: Cc1ccc(S(=O)(=O)c2nc(-c3cccc(C)c3)oc2N2CCN(c3ccccc3)CC2)cc1
Reply: 114

Query: Look up survival for this compound: O=C1CC(c2ccccc2)Sc2ccccc2N1Cc1ccccc1F (stereo not drawn)
Reply: 96

Query: Look up survival for this compound: Cc1cccc(/C=N/NC(=O)c2ccccn2)c1O
Reply: 5

Query: Look up survival for this compound: Cc1ccc(OCC(=O)Nc2ccc3nc(SCc4ccccc4)sc3c2)cc1
Reply: 81

Query: Look up survival for this compound: Cc1ccc(NC(=O)CSc2nc3n[nH]c(C)c3c(=N)n2-c2ccccc2C)cc1C
Reply: 77

Query: Look up survival for this compound: COc1ccc(CNC(=O)CCC(=O)N2CC3CCCN3c3ccccc32)cc1 (stereo not drawn)
Reply: 71

Query: Look up survival for this compound: CCOC(=O)c1ccn(-c2nc(-c3cccc(OC)c3)cc(C(F)(F)F)n2)n1
Reply: 18

Query: Look up survival for this compound: CCCCN(CC)C(=O)C1CCC(CNS(=O)(=O)c2cccc3nsnc23)CC1 (stereo not drawn)
Reply: 83

Query: Look up survival for this compound: Cc1ccc(-c2nc3ccc(Cl)cn3c2Nc2ccc3c(c2)OCCO3)s1
Reply: 107

Query: Look up survival for this compound: COc1ccc(CNC(=O)c2cc3cc(C)ccc3n2C)cc1
Reply: 74

----------
system: DeltatarO mutant; experiment: S. aureus survival, RN4220 and DeltatarO strains – OD600, teichoic acid synthesis inhibitors, primary screen (AID 463173); details: S. aureus RN4220 wild type/DeltatarO growth, OD600, 18 h, screened at 18.75 µg/mL (by protocol)
About 4,300 (8.3%) of roughly 52,000 compounds were called active. Rule as the data show it: active = survival mostly below about 52% (no sharp cut-off); inactive = mostly above about 56%. The sample as a whole holds a higher share of actives than the screen did.
Respond only with the outcome that fits, drawn from true (active), false (inactive)

Query: // return assay outcome for CCOC(=O)c1cc2c(=O)n3ccccc3nc2n(CC2CCCO2)c1=NC(=O)c1cc(C)cc(C)c1 (centres undefined)
Reply: true

Query: // return assay outcome for CCOC(=O)c1cc2c(=O)n3ccccc3nc2n(CC2CCCO2)c1=NC(=O)c1cccc(C)c1 (centres undefined)
Reply: true

Query: // return assay outcome for CCOC(=O)c1cc2c(=O)n3ccccc3nc2n(CC2CCCO2)c1=NC(=O)c1ccc(C)cc1 (centres undefined)
Reply: false

Query: // return assay outcome for CCOC(=O)c1cc2c(=O)n3ccccc3nc2n(CC2CCCO2)c1=NC(=O)c1cccc(C(F)(F)F)c1 (centres undefined)
Reply: false

----------
test system: DeltatarO mutant; test: S. aureus survival, RN4220 and DeltatarO strains – OD600, teichoic acid synthesis inhibitors, primary screen (AID 463173); settings: S. aureus RN4220 wild type/DeltatarO growth, OD600, 18 h, screened at 18.75 µg/mL (by protocol)
About 4,300 (8.3%) of roughly 52,000 compounds were called active. Cut-off read from the data, not from the text of the source: active = survival mostly below about 52% (no sharp cut-off); inactive = mostly above about 56%. The full list was thinned out, with actives kept by preference.
Respond only with the outcome that fits, drawn from T (active), F (inactive)

Query: // return assay outcome for CN(C(=O)CSc1nc2ccc(NC(=O)c3cccc(F)c3)cc2s1)c1ccccc1
Reply: F

Query: // return assay outcome for Cc1c(C(=O)N2CCC(c3nc4ccccc4s3)CC2)oc2cc(Br)ccc12
Reply: F

Query: // return assay outcome for Cc1cccc(-c2nc3c4ccccc4nc(NCCc4ccccc4)n3n2)c1
Reply: T

Query: // return assay outcome for CCCN(CCC)C(=O)CSc1nc2ccccc2c(=O)n1Cc1ccco1
Reply: F

Query: // return assay outcome for COc1ccc(CCNc2nc3cc(OC)c(OC)cc3c3nc(-c4cccnc4)nn23)cc1OC
Reply: F

----------
test system: DeltatarO mutant; experiment: S. aureus survival, RN4220 and DeltatarO strains – OD600, teichoic acid synthesis inhibitors, primary screen (AID 463173); conditions: S. aureus RN4220 wild type/DeltatarO growth, OD600, 18 h, stronger effect = lower value, screened at 18.75 µg/mL (by protocol)
Out of some 52,000 compounds screened, about 4,300 (8.3%) were called active. The sample as a whole holds a higher share of actives than the screen did.
I'd be grateful if you could share measured survival for these entries.
Numbers only; they are read as %.

Query: Look up survival for this compound: CC1CCN(S(=O)(=O)c2cn(CC(=O)Nc3ccc(F)c(Cl)c3)c(=O)c3ccccc23)CC1
Reply: 73

Query: Look up survival for this compound: CCOC(=O)Nc1cccc(C(=O)O)c1
Reply: 71

Query: Look up survival for this compound: Cc1ccc(OCC(=O)OCc2cc(=O)n3nc(C4CCCCC4)sc3n2)cc1
Reply: 120

Query: Look up survival for this compound: COc1ccc(CCN2C(=O)CN=C2Nc2ccc(F)cc2)cc1OC
Reply: 78

Query: Look up survival for this compound: CCOC(=O)c1ccccc1NC(=O)Nc1cc2c(cc1N1CCCC1)n(C)c(=O)n2C
Reply: 108

Query: Look up survival for this compound: Cc1ccc(NC(=O)N2CCN(c3nnc(C)c4c(C)n(-c5ccccc5)nc34)CC2)cc1Cl
Reply: 94

Query: Look up survival for this compound: OCC#CCSc1nc2ccccc2s1
Reply: 71

Query: Look up survival for this compound: FC(F)(F)c1cc(-c2ccccc2)nc2cc(-c3ccc(Br)cc3)nn12
Reply: 42

Query: Look up survival for this compound: COc1ccc(C2(C(=O)O)CCCC2)cc1OC
Reply: 107

Query: Look up survival for this compound: Cc1cc(C)cc(NC(=O)C(Cc2ccccc2)NS(=O)(=O)c2ccc3c(c2)CCC(=O)N3)c1 (stereo unspecified)
Reply: 77

Query: Look up survival for this compound: O=C(Cn1c(=O)nc(-c2ccccc2)c2cc(Cl)ccc21)NCc1ccccc1
Reply: 83

Query: Look up survival for this compound: COc1ccc(Nc2ncnc3onc(C)c23)cc1Cl
Reply: 87

Query: Look up survival for this compound: O=C(Nc1cc2c(cc1C(=O)c1ccccc1Cl)OCCO2)c1ccccc1
Reply: 113

Query: Look up survival for this compound: Cc1ccc(CNc2nc(-c3ccco3)nn2C(=O)c2ccccc2[N+](=O)[O-])cc1
Reply: 111

Query: Look up survival for this compound: CCn1cc(C(=O)N2CCN(c3ccccc3F)CC2)c(=O)c2cc(S(=O)(=O)N(C)C3CCCCC3)ccc21
Reply: 79

Query: Look up survival for this compound: O=S1(=O)C=C(Sc2nc3ccccc3s2)c2ccccc21
Reply: 4

Query: Look up survival for this compound: CCOc1ccc(C(=O)NCC(c2ccc3c(c2)OCO3)N2CCN(c3ccc(F)cc3)CC2)cc1 (stereo unspecified)
Reply: 87

Query: Look up survival for this compound: CC1(C)CC(=O)C=C(NCC(O)c2ccccc2)C1 (stereo unspecified)
Reply: 102

Query: Look up survival for this compound: COc1ccc(NC(=O)Cn2cc(C(=O)c3ccc(C)c(C)c3)c(=O)c3cc(OC)ccc32)cc1
Reply: 72

Query: Look up survival for this compound: Cc1c(C(=O)N2CCC(C)CC2)c(S(=O)(=O)NCc2ccc(Cl)cc2)c(C)n1C
Reply: 128

Query: Look up survival for this compound: FC(F)(F)c1cc(-c2ccccc2)nc2cc(-c3ccccc3)nn12
Reply: 59
